biological target: EGFR L858R (H3255 cells) (Homo sapiens, UniProt P00533, L858R); construct: host or cells: H3255; experiment: Inhibition of EGFR autophosphorylation (p-EGFR Y1068, western blot) in H3255 cells; type: cell-based; conditions: 3 h incubation, EGF stimulated
Sequence (P00533 25-1210 L858R): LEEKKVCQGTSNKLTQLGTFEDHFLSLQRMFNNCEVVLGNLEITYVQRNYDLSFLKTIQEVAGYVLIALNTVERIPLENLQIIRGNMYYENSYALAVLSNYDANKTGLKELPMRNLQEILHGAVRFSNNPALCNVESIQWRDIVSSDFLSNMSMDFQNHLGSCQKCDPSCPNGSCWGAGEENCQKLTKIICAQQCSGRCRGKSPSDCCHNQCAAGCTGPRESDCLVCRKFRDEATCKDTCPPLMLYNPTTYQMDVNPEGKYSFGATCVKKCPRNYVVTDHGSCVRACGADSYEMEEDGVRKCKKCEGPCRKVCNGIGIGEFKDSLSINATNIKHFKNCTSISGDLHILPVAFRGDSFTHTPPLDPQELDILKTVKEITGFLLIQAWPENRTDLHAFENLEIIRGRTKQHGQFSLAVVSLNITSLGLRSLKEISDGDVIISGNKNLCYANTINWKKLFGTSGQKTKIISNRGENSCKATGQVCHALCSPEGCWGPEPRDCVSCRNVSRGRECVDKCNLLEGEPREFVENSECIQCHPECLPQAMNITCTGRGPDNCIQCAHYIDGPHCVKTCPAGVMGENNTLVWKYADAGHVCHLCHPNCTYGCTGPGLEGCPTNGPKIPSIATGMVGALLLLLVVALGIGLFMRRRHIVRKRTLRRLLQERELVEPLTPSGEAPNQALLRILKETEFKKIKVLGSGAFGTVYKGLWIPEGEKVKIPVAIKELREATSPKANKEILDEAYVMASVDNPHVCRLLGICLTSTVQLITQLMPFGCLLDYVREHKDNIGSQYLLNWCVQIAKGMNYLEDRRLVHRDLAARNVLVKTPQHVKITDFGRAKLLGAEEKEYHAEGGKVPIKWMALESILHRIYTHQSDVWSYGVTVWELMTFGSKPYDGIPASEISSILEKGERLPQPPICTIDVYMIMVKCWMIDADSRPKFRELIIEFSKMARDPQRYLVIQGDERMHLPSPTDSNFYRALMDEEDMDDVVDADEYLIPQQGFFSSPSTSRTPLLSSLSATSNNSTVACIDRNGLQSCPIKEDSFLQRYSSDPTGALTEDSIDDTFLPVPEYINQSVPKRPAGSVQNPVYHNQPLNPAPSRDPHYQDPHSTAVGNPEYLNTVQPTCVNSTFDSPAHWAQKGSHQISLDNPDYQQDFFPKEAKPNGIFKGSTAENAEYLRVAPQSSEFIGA
reported_endpoint: IC50

Lookup: Record request: IC50 value, item CCOc1cc2ncc(C#N)c(Nc3ccc(F)c(Cl)c3)c2cc1NC(=O)/C=C/CNCc1cn(CCF)nn1
Found: 8 nM

###

test system: ABCB1 (MDR1); test: SRB cell viability assay in 3T3-MDR1 cells (ABCB1 expressing); format: cell-based; details: mouse, 3T3-MDR1 cells (ABCB1 expressing); 72 h, SRB, without zosuquidar
Hi! Just check whether GI50 at 72 h is below 9 µM. Below gives Fulfilled, equal or above gives Not fulfilled.

Observe how each entry below is paired with its result.
compound: CCOc1cc2ncc(C#N)c(Nc3ccc(F)c(Cl)c3)c2cc1NC(=O)/C=C/CNC
classification: Not fulfilled
--
compound: CCOc1cc2ncc(C#N)c(Nc3ccc(F)c(Cl)c3)c2cc1N
classification: Fulfilled
--
compound: CCOc1cc2ncc(C#N)c(Nc3ccc(F)c(Cl)c3)c2cc1NC(=O)/C=C/CN(C)C [EKB-569, pelitinib, reference compound]
classification: Fulfilled
--
compound: O=C1c2c(O)ccc(O)c2C(=O)c2c(NCCNCCO)ccc(NCCNCCO)c21 [Mitoxantrone, reference compound]
classification: Not fulfilled
--
compound: CCOc1cc2ncc(C#N)c(Nc3ccc(F)c(Cl)c3)c2cc1NC(=O)/C=C/CNCc1cn(CCF)nn1
classification: Not fulfilled

Continue with the compound presented below.
Lookup: # strict comparison: is reported GI50 at 72 h < 9 µM? input = CC[C@]1(O)C[C@@H]2CN(CCc3c([nH]c4ccccc34)[C@@](C(=O)OC)(c3cc4c(cc3OC)N(C)[C@H]3[C@@](O)(C(=O)OC)[C@H](OC(C)=O)[C@]5(CC)C=CCN6CC[C@]43[C@@H]65)C2)C1 [Vinblastine, reference compound]
Found: Fulfilled

###

Molecular target: EGFR Del E746-A750/T790M (PC9ER cells) (Homo sapiens, UniProt P00533, DEL746-750/T790M)
Construct: endogenous in cells; host or cells: PC9ER (Dr Olivier Pardo, Imperial College London)
Sequence (P00533 with tags, fused parts or gaps DEL746-750/T790M): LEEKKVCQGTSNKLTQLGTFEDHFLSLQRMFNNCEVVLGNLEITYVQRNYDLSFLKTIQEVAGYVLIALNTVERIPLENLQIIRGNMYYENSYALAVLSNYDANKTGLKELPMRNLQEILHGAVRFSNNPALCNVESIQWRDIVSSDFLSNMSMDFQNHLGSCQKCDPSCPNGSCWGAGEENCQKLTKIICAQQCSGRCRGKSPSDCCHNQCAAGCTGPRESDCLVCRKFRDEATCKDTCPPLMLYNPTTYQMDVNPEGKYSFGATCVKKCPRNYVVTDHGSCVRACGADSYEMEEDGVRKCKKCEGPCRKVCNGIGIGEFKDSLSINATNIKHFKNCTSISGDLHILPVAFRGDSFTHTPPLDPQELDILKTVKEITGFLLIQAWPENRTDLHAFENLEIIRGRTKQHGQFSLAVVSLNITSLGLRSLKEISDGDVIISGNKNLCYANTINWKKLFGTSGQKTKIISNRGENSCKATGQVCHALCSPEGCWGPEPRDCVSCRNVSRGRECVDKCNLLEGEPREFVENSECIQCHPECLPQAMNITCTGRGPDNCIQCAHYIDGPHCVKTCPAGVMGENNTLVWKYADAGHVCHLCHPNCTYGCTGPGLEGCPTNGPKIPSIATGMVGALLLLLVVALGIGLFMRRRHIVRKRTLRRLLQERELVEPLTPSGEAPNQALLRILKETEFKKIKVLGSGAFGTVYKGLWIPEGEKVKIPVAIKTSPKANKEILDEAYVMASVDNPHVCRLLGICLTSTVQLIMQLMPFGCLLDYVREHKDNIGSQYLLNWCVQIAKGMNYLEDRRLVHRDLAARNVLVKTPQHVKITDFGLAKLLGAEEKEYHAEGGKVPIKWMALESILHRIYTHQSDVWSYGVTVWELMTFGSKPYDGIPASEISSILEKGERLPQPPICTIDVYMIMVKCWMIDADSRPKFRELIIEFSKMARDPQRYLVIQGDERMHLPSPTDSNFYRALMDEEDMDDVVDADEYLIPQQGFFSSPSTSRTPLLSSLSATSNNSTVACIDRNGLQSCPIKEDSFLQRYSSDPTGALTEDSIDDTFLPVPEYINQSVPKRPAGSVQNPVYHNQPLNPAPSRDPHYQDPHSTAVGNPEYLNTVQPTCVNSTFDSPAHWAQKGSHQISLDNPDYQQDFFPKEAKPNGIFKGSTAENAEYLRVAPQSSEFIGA
Assay: Inhibition of EGFR autophosphorylation (p-EGFR Y1068, western blot) in PC9ER cells
Format: cell-based
Settings: 3 h incubation, EGF stimulated
Method: Affinity of the cyanoquinolines for EGFR was established by measuring their inhibition of EGFR autophosphorylation via western blot. Cells were seeded in 6 well plates and following 24 h of growth, were subject to overnight serum starvation. […] Lysates were analysed by western blot to measure changes to p-EGFR Y1068. […]
reported_endpoint: pIC50
# pIC50 = -log10(concentration in molar units)

Lookup: Which pIC50 is reported with EGFR Del E746-A750/T790M (PC9ER cells) (Homo sapiens, UniProt P00533, DEL746-750/T790M) for this entry: CCOc1cc2ncc(C#N)c(Nc3ccc(F)c(Cl)c3)c2cc1NC(=O)/C=C/CNCc1cn(CCF)nn1 [FED6] ?
Found: 7.35

###

Recorded log10(GI50 at 72 h) for the following compounds
tested on: ABCB1 (MDR1); test: SRB cell viability assay in 3T3-MDR1 cells (ABCB1 expressing); assay type: cell-based; conditions: mouse, 3T3-MDR1 cells (ABCB1 expressing), with zosuquidar 0.3 μM (1 h pre-treatment); 72 h, SRB, pre-treatment with 0.3 μM zosuquidar
The common logarithm of GI50 at 72 h in µM is what is listed.

compound: CC[C@]1(O)C[C@@H]2CN(CCc3c([nH]c4ccccc34)[C@@](C(=O)OC)(c3cc4c(cc3OC)N(C)[C@H]3[C@@](O)(C(=O)OC)[C@H](OC(C)=O)[C@]5(CC)C=CCN6CC[C@]43[C@@H]65)C2)C1 [Vinblastine, reference compound]
reported_endpoint: log10(GI50 at 72 h)
reported_measurement: -2.96
//
compound: CCOc1cc2ncc(C#N)c(Nc3ccc(F)c(Cl)c3)c2cc1NC(=O)/C=C/CNCc1cn(CCF)nn1
reported_endpoint: log10(GI50 at 72 h)
reported_measurement: 1.13
//
compound: CCOc1cc2ncc(C#N)c(Nc3ccc(F)c(Cl)c3)c2cc1N
reported_endpoint: log10(GI50 at 72 h)
reported_measurement: 1.09

Lookup: Record request: log10(GI50 at 72 h) value, item CCOc1cc2ncc(C#N)c(Nc3ccc(F)c(Cl)c3)c2cc1NC(=O)/C=C/CN(C)C [EKB-569, pelitinib, reference compound]
Found: 0.43

Lookup: Record request: log10(GI50 at 72 h) value, item O=C1c2c(O)ccc(O)c2C(=O)c2c(NCCNCCO)ccc(NCCNCCO)c21 [Mitoxantrone, reference compound]
Found: 1.76

Lookup: Record request: log10(GI50 at 72 h) value, item CCOc1cc2ncc(C#N)c(Nc3ccc(F)c(Cl)c3)c2cc1NC(=O)/C=C/CNC
Found: 0.77
